# Test system: Staphylococcus aureus
# EXPERIMENT_DESCRIPTION: Antibacterial activity against Staphylococcus aureus ATCC 6538P assessed as growth inhibition after 24 hrs by plate dilution method
# Type: functional
PROPERTY_LABEL: MIC (µM)

compound=O=c1[nH]c(=O)n([C@H]2CCCO2)cc1F property_label=MIC recorded_value=12
compound=O=c1[nH]cc(F)c(=O)[nH]1 property_label=MIC recorded_value=0.0723
compound=O=c1[nH]c(=O)n([C@@H]2CCCO2)cc1F property_label=MIC recorded_value=12
compound="O=c1[nH]c(=O)n(C2CCCO2)cc1F (racemic)" property_label=MIC recorded_value=12

These data points were gathered from ChEMBL document CHEMBL3271939.
